Value source: patent US10875876B2

# Tested on: HepG2 cells
measured property: CC50

INSERT INTO assay_data (structure_smiles, test_value) VALUES
  ('C[C@@H](N1CCCCc2c(cn(C)c2C(=O)Nc2ccc(F)c(F)c2)S1(=O)=O)C(F)(F)F', '> 25 µM');

---

The following molecules are listed with their measured melting point values.
measured property: melting point (°C)

INSERT INTO results (molecule, unit_descriptor, test_value) VALUES
  ('C[C@H]1CCc2c(cn(C)c2C(=O)Nc2ccc(F)c(C(F)F)c2F)S(=O)(=O)N1', '°C', 227.7),
  ('Cn1cc2c(c1C(=O)Nc1ccc(F)c(F)c1)CC(O)CNS2(=O)=O (stereo not shown)', '°C', 229),
  ('Cn1cc2c(c1C(=O)Nc1ccc(F)c(C#N)c1)OC[C@H](C(O)C1CC1)NS2(=O)=O (stereo partly shown)', '°C', 233.9),
  ('Cn1cc2c(c1C(=O)Nc1ccc(F)c(F)c1)OCC(C)(c1cnccn1)NS2(=O)=O (single isomer, unassigned) [Compound 145a]', '°C', 199.4),
  ('C[C@H](O)[C@H]1CCc2c(cn(C)c2C(=O)Nc2ccc(F)c(C(F)F)c2)S(=O)(=O)N1', '°C', 274.7),
  ('C[C@H](O)[C@H]1CCc2c(cn(C)c2C(=O)Nc2ccc(F)c(C(F)F)c2F)S(=O)(=O)N1', '°C', 277.1),
  ('Cn1cc2c(c1C(=O)Nc1ccc(F)c(F)c1)OCC(C)(Cc1ccc(Br)nc1)NS2(=O)=O (stereo not shown)', '°C', 259.2);
